# Tested on: 217524-143-R1-J4-PDC spheroids with HUVEC/MSC, viability
# Experiment summary: Anticancer human tumor 217524-143-R1-J4-PDC patient-derived pancreatic carcinoma cell line growth inhibition [CLK]; active = viability on the fitted dose curve at most 10% of control; inactive = the rest
# Measurement conditions: second compound 3.16 µM; first compound 0.1 µM
Assign a class; possible classes are active, inactive

Look over these answered cases.
CCN1CCN(Cc2ccc(Nc3ncc(F)c(-c4cc(F)c5nc(C)n(C(C)C)c5c4)n3)nc2)CC1 + CN1CCN(c2cc(C(=O)Nc3cc4cc(-c5cnn(C)c5)ccc4cn3)ccn2)CC1
active
COc1ccc([C@@H](O)c2cc(-c3ncnc4cc(N5CCOCC5)ccc34)c(F)cc2Cl)nn1 + CNC(=O)c1ccc(Nc2nc(OC3CCCC3)c3c(-c4ccc5nc(C)oc5c4)c[nH]c3n2)c(OC)c1
inactive

Q: Which result was noted for this compound in the test: CC(=O)O[C@H]1C(=O)[C@@]2(C)[C@H]([C@H](OC(=O)c3ccccc3)[C@]3(O)C[C@H](OC(=O)[C@H](O)[C@@H](NC(=O)c4ccccc4)c4ccccc4)C(C)=C1C3(C)C)[C@]1(OC(C)=O)CO[C@@H]1C[C@@H]2O + CN1CCN(c2cc(C(=O)Nc3cc4cc(-c5cnn(C)c5)ccc4cn3)ccn2)CC1
A: active

---

# key: entry, value: viability, T/C
# Tested on: 217524-143-R1-J4-PDC spheroids with HUVEC/MSC, viability
# Experiment summary: Anticancer human tumor 217524-143-R1-J4-PDC cell line growth inhibition [CLK];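 note: spheroids exposed to agents for seven days before reading; 100% = DMSO vehicle control viability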
# Measurement conditions: second compound 0.0316 µM; first compound 0.01 µM; stronger effect = lower value
API: value field is a number in %; no unit string.

COc1c(OCCCN2CCOCC2)ccc2c3n(c(=NC(=O)c4cnc(N)nc4)nc12)CCN3 + CNC(=O)c1ccc(Nc2nc(OC3CCCC3)c3c(-c4ccc5nc(C)oc5c4)c[nH]c3n2)c(OC)c1
38.7
CCN1CCN(Cc2ccc(Nc3ncc(F)c(-c4cc(F)c5nc(C)n(C(C)C)c5c4)n3)nc2)CC1 + CN1CCN(c2cc(C(=O)Nc3cc4cc(-c5cnn(C)c5)ccc4cn3)ccn2)CC1
62.5

Now examine the next entry.
Q: Give the value of viability, T/C reported for the following: Cn1ncnc1[C@H]1c2n[nH]c(=O)c3cc(F)cc(c23)N[C@@H]1c1ccc(F)cc1 + CN1CCN(c2cc(C(=O)Nc3cc4cc(-c5cnn(C)c5)ccc4cn3)ccn2)CC1
A: 65.4

---

# Tested on: 217524-143-R1-J4-PDC spheroids with HUVEC/MSC, viability
# Experiment summary: Anticancer human tumor 217524-143-R1-J4-PDC cell line growth inhibition [CLK];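 note: spheroids exposed to agents for seven days before reading; 100% = DMSO vehicle control viability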
# Measurement conditions: second compound 3.16 µM; first compound 0.0949 µM; stronger effect = lower value
Reported property: viability, T/C

See these solved cases before continuing.
C=CC(=O)Nc1cc(Nc2nccc(-c3cn(C)c4ccccc34)n2)c(OC)cc1N(C)CCN(C)C + CNC(=O)c1ccc(Nc2nc(OC3CCCC3)c3c(-c4ccc5nc(C)oc5c4)c[nH]c3n2)c(OC)c1
12.5%
C=CC(=O)Nc1cc(Nc2nccc(-c3cn(C)c4ccccc34)n2)c(OC)cc1N(C)CCN(C)C + CN1CCN(c2cc(C(=O)Nc3cc4cc(-c5cnn(C)c5)ccc4cn3)ccn2)CC1
1.04%
NC(=O)C(=Cn1cnc(-c2cc(C(F)(F)F)cc(C(F)(F)F)c2)n1)c1cncnc1 + CNC(=O)c1ccc(Nc2nc(OC3CCCC3)c3c(-c4ccc5nc(C)oc5c4)c[nH]c3n2)c(OC)c1
9.81%
CC(C)CC(NC(=O)C(Cc1ccccc1)NC(=O)c1cnccn1)B(O)O (stereo unspecified) + CNC(=O)c1ccc(Nc2nc(OC3CCCC3)c3c(-c4ccc5nc(C)oc5c4)c[nH]c3n2)c(OC)c1
1.76%

Q: Using the record for NC(=O)C(=Cn1cnc(-c2cc(C(F)(F)F)cc(C(F)(F)F)c2)n1)c1cncnc1 + CN1CCN(c2cc(C(=O)Nc3cc4cc(-c5cnn(C)c5)ccc4cn3)ccn2)CC1 , state its measured viability, T/C.
A: 0.62%

Q: Return viability, T/C (reported value) for this molecule: CC(C)CC(NC(=O)C(Cc1ccccc1)NC(=O)c1cnccn1)B(O)O (stereo unspecified) + CN1CCN(c2cc(C(=O)Nc3cc4cc(-c5cnn(C)c5)ccc4cn3)ccn2)CC1
A: 0.63%
